Each entry below carries its recorded cAMP EC50.
Biological target: T1, mouse GLP-1 receptor (mouse, UniProt O35659 22-463)
T1 sequence (looked up): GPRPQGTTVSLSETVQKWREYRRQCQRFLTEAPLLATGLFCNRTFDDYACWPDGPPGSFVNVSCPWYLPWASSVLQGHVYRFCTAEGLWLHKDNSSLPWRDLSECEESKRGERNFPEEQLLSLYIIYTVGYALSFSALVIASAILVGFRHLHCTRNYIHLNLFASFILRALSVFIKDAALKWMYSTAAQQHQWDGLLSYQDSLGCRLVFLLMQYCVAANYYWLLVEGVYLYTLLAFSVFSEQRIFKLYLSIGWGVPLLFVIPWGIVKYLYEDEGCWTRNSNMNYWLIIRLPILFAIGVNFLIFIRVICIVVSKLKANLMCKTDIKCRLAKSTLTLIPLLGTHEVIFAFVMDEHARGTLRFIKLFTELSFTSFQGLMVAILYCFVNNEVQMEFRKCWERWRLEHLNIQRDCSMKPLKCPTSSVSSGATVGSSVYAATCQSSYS
Assay: cell-based or functional assay
// units = nM; emit number, no label

Some binders with known cAMP EC50 results, for comparison:
IP276 (Fc fusion) YSEGTFTSDYSKLLEEEAVRLFIEWLVKGPGGGGGGGGGGGGGGGGGATHTCPPC	0.34
IP245 (Fc fusion) YSEGTFTSDYSIAMDEEAVRLFIEWLVKGPAAAGGSGSTASSGSGSATGGGGAATHTCPPCPAPEF	4.8
IP253 (Fc fusion) YSEGTFTSDYSKLLDEEAVRLFIEWLLAGAPPGGSGSTASSGSGSATGGGGAATHTCPPCPAPEF	3.8
IP243 (Fc fusion) YSEGTFTSDYSKLLEEEAQRLFIEWLVKGPAAAGGSGSTASSGSGSATGGGGAATHTCPPCPAPEF	0.36

Please turn your attention to the following entry.
For the binder IP259 (Fc fusion) YSEGTFTSDYSKLLEKEAVRLFIEWLVKGPGGGGGSGGGGSGGGGSGGGGSATHTCPPCPAPEF , give its measured cAMP EC50 value.
0.31

Numbers sourced from patent US20160185837A1.
